targetOrSystem: Ataxin-2 (Homo sapiens)
protocolDescription: qHTS for Inhibitors of ATXN expression.
Format: functional
The whole screen tested about 400,000 compounds, of which about 1,900 (0.47%) were called active. Not shown: some 14% with an inconclusive outcome. The rule behind the calls is not given here. The full list was thinned out, with actives kept by preference.
Outcome (select one): 1 for active, 0 for inactive

CCOC(=O)[C@]12Cc3c(cc(OC)c(OC)c3OC)[C@H]1N(C)C(=O)c1cc(OC)ccc12
1
CCCCCCCCn1sccc1=O
1
COc1cccc(C(=O)NCc2nc(-c3cccc(NC(=O)c4ccoc4C)c3)oc2C)c1OC
1
CCOC(=O)[C@]12Cc3ccccc3[C@H]1N(C(C)C)C(=O)c1ccccc12
1

State the result this test recorded for CCN(CCCl)c1cc(CN(C)C)cc(NC(=O)c2ccc(C(=O)Nc3cc(CN(C)C)cc(N(CC)CCCl)c3)cc2)c1 . 1

====

targetOrSystem: Ataxin-2 (Homo sapiens)
protocolDescription: qHTS for Inhibitors of ATXN expression.
Format: functional
Screen size: about 400,000 compounds; about 1,900 (0.47%) were called active. Roughly 14% stayed inconclusive and do not appear here. No rule for the calls is given here. Shown is part of a subset that was picked to be rich in actives.
Write down one outcome, taken from t for active, f for inactive

// return assay outcome for Cc1cccc(C)c1-n1nnnc1C(C1CC1)N1CCC2(CC1)C(=O)NCN2c1ccccc1 (stereo not given) t

====

targetOrSystem: Ataxin-2 (Homo sapiens)
protocolDescription: qHTS for Inhibitors of ATXN expression.
Type: functional
The whole screen tested about 400,000 compounds, of which about 1,900 (0.47%) were called active. Inconclusive results (about 14%) are left out. The rule behind the calls is not given here. Shown is part of a subset that was picked to be rich in actives.
Hi! Could you answer with just one of these? active, inactive

COc1cccc(C(c2nnnn2-c2ccc3c(c2)OCCO3)N2CCC3(CC2)C(=O)NCN3c2ccccc2)c1OC (stereo not drawn)
active
Cc1ccc(OCCOc2cccc(C=C3C(=O)NC(=O)NC3=O)c2)cc1
inactive
C=CCn1c(=O)/c(=C\c2ccccn2)s/c1=C(/C#N)C(=O)NCC1CCCO1 (stereo not drawn)
inactive
COc1ccccc1N1CCN(C(=O)c2cc3c(-c4ccccc4F)nn(C)c3s2)CC1
active
C=C1C(=O)O[C@@H]2C[C@@H](C)[C@@H]3C=CC(=O)[C@@]3(C)[C@@H](O)[C@H]12
active
Brc1cccc(CNCCc2ccc3c(c2)OCO3)c1
inactive
COC(=O)C1=C(c2cccc(OCc3ccccc3)c2)C[C@@H]2CC[C@H]1N2C(=O)NC1CCN(Cc2ccccc2)CC1
active
COc1cccc(C(c2nnnn2C2CCCC2)N2CCC3(CC2)C(=O)NCN3c2ccccc2)c1OC (stereo not drawn)
active

Check the results log: what was the call for O=C(c1ccc(C(F)(F)F)cc1)C1CCCN(Cc2ccncc2)C1 (stereo not drawn) ? inactive

Hey, what did the test say about Cc1n[nH]c2ccc(-c3cncc(OC[C@@H](N)Cc4c[nH]c5ccccc45)c3)cc12 ? active

Fill in: this test's call for O=C1NC(=O)N(CCc2ccccc2)C(=O)/C1=C(O)/C=C/c1c[nH]c2ccccc12 is ___ inactive

What was the test verdict on CC(=O)OC(C)(C)/C=C/C(=O)[C@](C)(O)[C@H]1[C@H](O)C[C@@]2(C)[C@@H]3CC=C4[C@H](C[C@H](O)C(=O)C4(C)C)[C@]3(C)C(=O)C[C@]12C ? active

Kindly provide the recorded test outcome for the following compound: COc1cccc(C(c2nnnn2C(C)(C)C)N2CCC3(CC2)C(=O)NCN3c2ccccc2)c1OC (stereo not drawn) active

Test call, this compound: Cc1cnc(SCc2ccccn2)nc1C1CCCN(C(=O)c2scc3c2CCCC3)C1 (stereo not drawn) active

Answer briefly: the call reported for CC(C)Sc1nc2[nH]cnc(N)c-2n1 in this assay. inactive

I would be grateful if you could indicate the recorded call for C=C1C(=O)O[C@@H]2C[C@@H](C)[C@@H]3C=CC(=O)[C@@]3(C)[C@@H](OC(=O)CC(=O)O[C@H]3[C@@H]4C(=C)C(=O)O[C@@H]4C[C@@H](C)[C@@H]4C=CC(=O)[C@]43C)[C@H]12 . active

# outcome recorded in this test, key = COc1ccc(C(=O)C2CCCN(Cc3cnc(C)s3)C2)c(OC)c1 (stereo not drawn) inactive

What is the recorded call for this compound in the test? CCC(C)NC(=O)c1c(N)n(CCCOC)c2nc3ccccc3nc12 (stereo not drawn) inactive

====

targetOrSystem: Ataxin-2 (Homo sapiens) (UniProt Q99700)
Sequence (Q99700 whole entry): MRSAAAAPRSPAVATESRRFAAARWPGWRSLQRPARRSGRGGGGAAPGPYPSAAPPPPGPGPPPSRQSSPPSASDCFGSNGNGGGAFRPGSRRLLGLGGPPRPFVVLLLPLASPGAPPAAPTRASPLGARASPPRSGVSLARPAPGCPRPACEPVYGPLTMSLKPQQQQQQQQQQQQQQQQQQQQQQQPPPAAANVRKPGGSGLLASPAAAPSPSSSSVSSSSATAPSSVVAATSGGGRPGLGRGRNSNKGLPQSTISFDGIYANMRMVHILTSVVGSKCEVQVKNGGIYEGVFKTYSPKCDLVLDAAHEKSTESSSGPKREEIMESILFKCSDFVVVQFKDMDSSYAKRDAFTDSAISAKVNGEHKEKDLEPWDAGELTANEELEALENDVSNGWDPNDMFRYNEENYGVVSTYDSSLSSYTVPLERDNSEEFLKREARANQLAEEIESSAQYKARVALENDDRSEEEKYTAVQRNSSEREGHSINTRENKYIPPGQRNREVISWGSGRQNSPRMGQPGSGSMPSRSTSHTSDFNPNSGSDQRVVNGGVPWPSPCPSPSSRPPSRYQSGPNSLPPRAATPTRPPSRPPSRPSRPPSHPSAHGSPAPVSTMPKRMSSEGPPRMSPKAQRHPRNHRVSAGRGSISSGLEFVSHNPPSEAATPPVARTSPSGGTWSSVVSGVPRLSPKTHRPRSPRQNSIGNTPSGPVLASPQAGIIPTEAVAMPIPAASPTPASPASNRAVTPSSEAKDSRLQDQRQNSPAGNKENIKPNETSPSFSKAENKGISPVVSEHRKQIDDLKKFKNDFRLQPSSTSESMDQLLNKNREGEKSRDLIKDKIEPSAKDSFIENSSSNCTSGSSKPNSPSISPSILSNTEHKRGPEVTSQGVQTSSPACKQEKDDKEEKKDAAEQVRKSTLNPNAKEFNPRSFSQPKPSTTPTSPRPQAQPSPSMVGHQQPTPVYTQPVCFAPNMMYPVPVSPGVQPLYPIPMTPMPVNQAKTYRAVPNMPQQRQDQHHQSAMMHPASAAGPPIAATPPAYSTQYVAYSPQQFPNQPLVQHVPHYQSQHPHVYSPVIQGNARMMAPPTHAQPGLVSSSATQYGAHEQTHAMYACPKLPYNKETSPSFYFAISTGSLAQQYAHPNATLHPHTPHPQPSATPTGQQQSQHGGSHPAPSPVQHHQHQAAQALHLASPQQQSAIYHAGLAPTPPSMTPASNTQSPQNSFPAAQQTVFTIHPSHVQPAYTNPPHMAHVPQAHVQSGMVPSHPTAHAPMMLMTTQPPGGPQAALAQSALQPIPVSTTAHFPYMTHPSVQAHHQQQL
protocolDescription: qHTS for Inhibitors of ATXN expression.
Type: functional
The campaign covered roughly 400,000 compounds. About 1,900 (0.47%) were called active. About 14% were inconclusive and are not listed. The rule behind the calls is not given here. Many of the other results were omitted from the sample, so actives are more common in it than they were.
Answer with one of the outcomes given here: active, inactive

Sample answers from the record:
Clc1ccc2sc(C3CCNCC3)nc2c1
inactive
O=C(Nc1c(Cl)cccc1Cl)Oc1cccc2cccnc12
inactive

Any idea what this test logged for C[C@H]1CC[C@@H]2[C@@H](C)[C@H]3[C@H](C[C@H]4[C@@H]5CC=C6C[C@@H](O[C@@H]7O[C@H](CO)[C@H](O)[C@H](O[C@@H]8O[C@H](CO)[C@@H](O)[C@H](O)[C@H]8O)[C@H]7O[C@@H]7O[C@@H](C)[C@H](O)[C@@H](O)[C@H]7O)CC[C@]6(C)[C@H]5CC[C@]34C)N2C1 ? active

Write down the call the test reported for this compound. Item: COc1ccc(C(c2nnnn2Cc2ccccc2)N2CCC(n3c(O)nc4ccccc43)CC2)cc1 (centres undefined) active

====

targetOrSystem: Ataxin-2 (Homo sapiens)
protocolDescription: qHTS for Inhibitors of ATXN expression.
Format: functional
The campaign covered roughly 400,000 compounds. About 1,900 (0.47%) were called active. Inconclusive results (about 14%) are left out. How the calls were made is not given here. This is one part of a sample in which actives are shown more often than they occur.
Reply using exactly one outcome from active, inactive

Solved cases (8 shown):
C=CCNC(=O)c1c(N)n(Cc2ccco2)c2nc3ccccc3nc12
inactive
Cc1oc(-c2ccccc2Cl)nc1CN1C(=O)CN=C(c2ccccc2)c2cc(Cl)ccc21
active
C/C(=C\c1ccc(N(C)C)cc1)[N+](=O)[O-]
active
C[C@@H]1O[C@H](O[C@@H]2CC[C@@]3(C=O)[C@H]4CC[C@@]5(C)[C@@H](C6=CC(=O)OC6)CC[C@@]5(O)[C@@H]4CC[C@]3(O)C2)C[C@H](O)[C@@H]1O
active
Nc1ccc2ccc3cccc[n+]3c2c1
inactive
CCOCCSc1nc2c(c(-c3cccs3)c1C#N)CC/C2=C/c1cccs1
inactive
CCOc1ccc(C(=O)Nc2cccc(C(=O)OCc3cc(=O)n4nc(C5CC5)sc4n3)c2)cc1
active
N#Cc1cccc(NC(=O)CSc2nc3c(cc2C#N)N2CCC3CC2)c1
inactive

I would be grateful if you could indicate the recorded call for C[C@@H]1O[C@H](O[C@H]2C[C@@H](O)[C@@]3(CO)[C@H]4[C@@H](O)C[C@]5(C)[C@@H](C6=CC(=O)OC6)CC[C@]5(O)[C@H]4CC[C@]3(O)C2)[C@@H](O)[C@H](O)[C@@H]1O . active

Per the records of this test, what outcome belongs to Cc1cccc(C)c1-n1nnnc1C(c1ccnc2ccccc12)N1CCC2(CC1)C(=O)NCN2c1ccccc1 (stereo not given) ? active

====

targetOrSystem: Ataxin-2 (Homo sapiens)
protocolDescription: qHTS for Inhibitors of ATXN expression.
Assay type: functional
About 1,900 (0.47%) of roughly 400,000 compounds were called active. Not shown: some 14% with an inconclusive outcome. No rule for the calls is given here. Shown is part of a subset that was picked to be rich in actives.
Valid outcomes are listed here; reply with one: active, inactive

Below, 4 compounds whose answers are already recorded.
CC[n+]1c(/C=C/C=C/c2ccc(N(C)C)cc2)sc2ccccc21
active
CC[n+]1c(C=CN(C)c2ccccc2)sc2ccc(Cl)cc21
active
O=c1c2ccccc2nc(/C=C/c2ccc(O)cc2)n1-c1ccc(O)cc1
inactive
Cn1c(=O)c2c(nc(NN/C=C3/C(=O)NC(=S)N(C4CCCCC4)C3=O)n2C)n(C)c1=O
inactive

Lab note: next compound to report on.
Check the results log: what was the call for O=C1NC(=O)C(=CNc2cc(F)cc(F)c2)C(=O)N1 ? inactive

====

targetOrSystem: Ataxin-2 (Homo sapiens) (UniProt Q99700)
protocolDescription: qHTS for Inhibitors of ATXN expression.
Type: functional
Among all 400,000 compounds or so, about 1,900 (0.47%) were called active. Inconclusive results (about 14%) are left out. How the calls were made is not given here. The entries come from a sample that favours actives as a whole.
// allowed return values: active, inactive

CCOC(=O)[C@]12Cc3cc(OC)ccc3[C@H]1N(CCC(=O)OC)C(=O)c1cc(OC)ccc12
active
O=C(CN1C(=O)CN=C(c2ccccc2)c2ccccc21)Nc1cccc(C(F)(F)F)c1
active
NNC(=O)CN1C(=O)CN=C(c2ccccc2)c2cc(Br)ccc21
inactive
CCCNC(=O)c1c(N)n(Cc2ccco2)c2nc3ccccc3nc12
inactive

Read the next record carefully.
Lab log entry: Clc1ccc2c(c1)C(OC1CN3CCC1CC3)c1ccccc1CS2 (stereo not given) — outcome as called in the assay? active

Origin of the recorded values: ChEMBL document CHEMBL1201862
